target: HLA-C0602 (Homo sapiens, UniProt P10321, A176E/A330V/C350S/L171W/L180W/L218V/M285V/M309V/M331V/N104K/P208H/Q277E/Q291P/R121W/S101N/S123Y/S297R/T329A/T363A/V319A/V328M); assay: Competitive peptide binding assay, CIR-C0602
pIC50: −log10 of the molar value. Peptide text beside a SMILES is read from it.
Task for the reader: assign each of the following compounds its reported pIC50.

CC[C@H](C)[C@H](NC(=O)[C@H](Cc1ccc(O)cc1)NC(=O)[C@H](CC(C)C)NC(=O)[C@H](Cc1ccccc1)NC(=O)[C@H](CCCNC(=N)N)NC(=O)[C@H](CC(N)=O)NC(=O)[C@H](CCCNC(=N)N)NC(=O)[C@H](CC(N)=O)NC(=O)[C@H](C)NC(=O)[C@@H](N)Cc1ccc(O)cc1)C(=O)O [Epitope M73] (H-YANRNRFLYI-OH; N-terminus and C-terminus assumed) ... > 5.30
CC[C@H](C)[C@H](NC(=O)[C@H](CCCNC(=N)N)NC(=O)[C@H](CO)NC(=O)[C@H](CCSC)NC(=O)CNC(=O)[C@@H](N)Cc1ccccc1)C(=O)NCC(=O)N[C@@H](CCSC)C(=O)N[C@@H](CCC(=O)O)C(=O)N[C@H](C(=O)O)C(C)C [Epitope M19] (H-FGMSRIGMEV-OH; N-terminus and C-terminus assumed) ... > 5.30
CC[C@H](C)[C@H](N)C(=O)N[C@@H](C)C(=O)N[C@@H](CC(N)=O)C(=O)N[C@@H](CCC(N)=O)C(=O)N[C@@H](Cc1ccccc1)C(=O)N[C@@H](CC(N)=O)C(=O)N[C@@H](CO)C(=O)N[C@@H](C)C(=O)N[C@H](C(=O)O)[C@@H](C)CC [Epitope M37] (H-IANQFNSAI-OH; N-terminus and C-terminus assumed) ... < 4.82
C[C@H](NC(=O)[C@H](Cc1ccc(O)cc1)NC(=O)[C@H](C)NC(=O)[C@@H](N)Cc1ccccc1)C(=O)N[C@@H](CC(N)=O)C(=O)N[C@@H](CCCNC(=N)N)C(=O)N[C@@H](CC(N)=O)C(=O)N[C@@H](CCCNC(=N)N)C(=O)N[C@@H](Cc1ccccc1)C(=O)O [Epitope M43] (H-FAYANRNRF-OH; N-terminus and C-terminus assumed) ... 4.82 to 5.30
CC[C@H](C)[C@H](NC(=O)[C@@H]1CCCN1C(=O)[C@@H](NC(=O)[C@H](Cc1c[nH]cn1)NC(=O)[C@H](CCCCN)NC(=O)[C@H](CO)NC(=O)[C@@H](N)Cc1ccc(O)cc1)[C@@H](C)O)C(=O)N[C@@H](CC(N)=O)C(=O)N[C@@H](CC(C)C)C(=O)O [Epitope M127] (H-YSKHTPINL-OH; N-terminus and C-terminus assumed) ... < 4.82

Moving on to another compound below.
Bench note: what pIC50 did CC(C)C[C@H](NC(=O)[C@@H](NC(=O)[C@@H](NC(=O)CNC(=O)[C@H](CCC(N)=O)NC(=O)[C@@H]1CCCN1C(=O)[C@H](CC(C)C)NC(=O)[C@H](CCC(N)=O)NC(=O)[C@H](CC(C)C)NC(=O)[C@@H](N)C(C)C)[C@@H](C)O)[C@@H](C)O)C(=O)O [Epitope M18] (H-VLQLPQGTTL-OH; N-terminus and C-terminus assumed) show?
< 4.82
